Record form. Attribute: pIC50. Fill in for each entry.
- SYSTEM UNDER TEST: CCR4 (Homo sapiens (Human), UniProt P51679)
- Sequence (P51679 whole entry): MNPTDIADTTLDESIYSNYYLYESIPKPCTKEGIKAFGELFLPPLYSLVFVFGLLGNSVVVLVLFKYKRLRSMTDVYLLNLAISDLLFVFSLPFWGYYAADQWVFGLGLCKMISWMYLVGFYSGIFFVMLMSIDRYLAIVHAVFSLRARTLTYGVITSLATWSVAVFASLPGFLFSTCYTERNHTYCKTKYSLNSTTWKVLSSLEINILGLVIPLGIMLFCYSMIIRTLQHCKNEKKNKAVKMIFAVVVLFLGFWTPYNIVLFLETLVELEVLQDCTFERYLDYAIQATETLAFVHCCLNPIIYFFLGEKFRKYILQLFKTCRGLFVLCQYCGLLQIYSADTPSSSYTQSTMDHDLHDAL
- EXPERIMENTAL DETAILS: Calcium mobilization (Ca Flux) assay
- Assay type: cell-based
pIC50: −log10 of the molar value. Counter-ions that a name gives are not always drawn.

pIC50 reported for this molecule Cc1nn([C@H](C)c2ccc(Cl)cc2Cl)c2nc(C3=CCC(N4CCC[C@H]4CCC(N)=O)[C@H](C)C3)cnc12 (stereo partly drawn) : > 7.00

The reported value for CC1C=C(c2cnc3c(C#N)nn([C@H](C)c4ccc(Cl)cc4Cl)c3n2)CCC1N1CCC[C@H]1CCC(=O)O (stereo partly drawn) [Example 73, 2,2,2-trifluoroacetate] in terms of pIC50 is 6.30 to 7.00

Lab note: measured pIC50 of C[C@H](c1ccc(Cl)cc1Cl)n1nc(C#N)c2ncc(N3CCC(N4CCCC(CO)C4)CC3)nc21 (stereo partly drawn) [Example 62, hydrochloride] was 6.30 to 7.00

The molecule identified as Cc1nn([C@H](C)c2ccc(Cl)cc2Cl)c2nc(N3CCC(N4CCC[C@H]4CCC(O)C(F)(F)F)C(C)C3)cnc12 (single isomer, unassigned) [Example 47, hydrochloride] registered its pIC50 at 6.30 to 7.00

Value of pIC50 reported for the molecule C[C@H](c1ccc(Cl)cc1Cl)n1nc(C#N)c2ncc(C3=CC[C@@H](N4CCC[C@H]4C(N)=O)[C@@H](C)C3)nc21 [Example 80, hydrochloride] is 6.30 to 7.00

Per the records, this molecule ( Cc1nn([C@H](C)c2ccc(Cl)cc2Cl)c2nc(N3CC[C@H](N4CCC[C@H]4CCC(=O)O)[C@H](C)C3)cnc12 [Example 42, hydrochloride] ) has pIC50 equal to 6.30 to 7.00

====

- SYSTEM UNDER TEST: CCR4 (Homo sapiens (Human), UniProt P51679)
- EXPERIMENTAL DETAILS: Calcium mobilization (Ca Flux) assay
- Type: cell-based
Where a name gives a salt, the structure may show the parent alone.
ENDPOINT LABEL: IC50

What the record says about C[C@@H]1C=C(c2cnc3c(C#N)nn([C@H](C)c4ccc(Cl)cc4Cl)c3n2)CC[C@@H]1N1CCC[C@H]1CO [Example 69, hydrochloride] : IC50 is 100 to 500 nM

Record Cc1nn([C@H](C)c2ccc(Cl)cc2Cl)c2nc(N3CC[C@H](N4CCC[C@@H]4C)[C@H](C)C3)cnc12 [Example 22, hydrochloride] . Reported IC50: 100 to 500 nM

Query Cc1nn([C@H](C)c2ccc(Cl)cc2Cl)c2nc(N3CC[C@H](N4CCC[C@@H](CC(=O)O)C4)[C@H](CO)C3)cnc12 [Example 65, hydrochloride] yields IC50 of 100 to 500 nM

Consider Cc1nn([C@H](C)c2ccc(Cl)cc2Cl)c2nc(N3CC[C@H](N4C[C@H](O)C[C@H]4C(=O)O)[C@H](C)C3)cnc12 [Example 37, 2,2,2-trifluoroacetate] . Its measured IC50 is > 500 nM

Lab note: measured IC50 of Cc1nn([C@H](C)c2ccc(Cl)cc2Cl)c2nc(N3CC[C@H](N4CCC[C@H]4C)[C@H](C)C3)cnc12 [Example 20, hydrochloride] was < 100 nM

get_value(item= Cc1nn([C@H](C)c2ccc(Cl)cc2Cl)c2nc(C3=CC[C@H](N4CCC[C@H]4C(N)=O)[C@H](C)C3)cnc12 [Example 86, hydrochloride] , readout=IC50) returns 100 to 500 nM

IC50 recorded for this molecule, Cc1nn([C@H](C)c2ccc(Cl)cc2Cl)c2nc(N3CC[C@H](N4CCCCCCC4)[C@H](C)C3)cnc12 [Example 16, hydrochloride] , is < 100 nM

response.value for C[C@@H]1CN(c2cnc3c(C#N)nn([C@H](C)c4ccc(Cl)cc4Cl)c3n2)CC[C@@H]1N1CCC[C@H]1C(=O)O [Example 35, 2,2,2-trifluoroacetate] (field: IC50) = 100 to 500 nM

# IC50 of Cc1nn([C@H](C)c2ccc(Cl)cc2Cl)c2nc(N3CC[C@H](N4CCC[C@H]4CCS(N)(=O)=O)[C@H](C)C3)cnc12 [Example 52, hydrochloride] = < 100 nM

Cc1nn([C@H](C)c2ccc(Cl)cc2Cl)c2nc(N3CC[C@@H](N4CCC[C@H]4CCS(N)(=O)=O)[C@@H](C)C3)cnc12 [Example 53, hydrochloride] yielded IC50 of 100 to 500 nM

So for Cc1nn([C@H](C)c2ccc(Cl)cc2Cl)c2nc(N3CCC(N4CCC[C@H]4C(C)CC(=O)O)C(C)C3)cnc12 (some centres unmarked) [Example 60, 2,2,2-trifluoroacetate] , the logged IC50 turned out to be 100 to 500 nM

Measured IC50 of CC1CC(c2cnc3c(C#N)nn([C@H](C)c4ccc(Cl)cc4Cl)c3n2)=CCC1N1CCC[C@H]1CCC(=O)O (mixture of isomers) [Example 74, 2,2,2-trifluoroacetate] : < 100 nM

Lab note: measured IC50 of COC[C@@H]1CCCN1C1CC=C(c2cnc3c(C#N)nn([C@H](C)c4ccc(Cl)cc4Cl)c3n2)CC1C (mixture of isomers) [Example 84, hydrochloride] was 100 to 500 nM

Given item CC1CN(c2cnc3c(C(N)=O)nn(C(C)c4ccc(Cl)cc4Cl)c3n2)CCC1N1CCCCC1 (centres unmarked) [Example 4, hydrochloride] , the value recorded as its IC50 is 100 to 500 nM

Per the record, Cc1nn([C@H](C)c2ccc(Cl)cc2Cl)c2nc(N3CCC(N4CCC[C@H]4CCC(=O)O)CC3)cnc12 [Example 51, 2,2,2-trifluoroacetate] has IC50 of 100 to 500 nM

Record Cc1nn([C@H](C)c2ccc(Cl)cc2Cl)c2nc(N3CCC(N4CCCC(CCC(=O)O)C4)C(C)C3)cnc12 (mixture of isomers) [Example 41] , field IC50: > 500 nM

C[C@H](c1ccc(Cl)cc1Cl)n1nc(C#N)c2ncc(N3CC[C@H](N4CCCCC4)[C@H](CO)C3)nc21 [Example 29, hydrochloride] yielded IC50 of < 100 nM

Reported IC50 of C[C@H](c1ccc(Cl)cc1Cl)n1nc(C#N)c2ncc(N3CC[C@H](N4CCC[C@H]4C(=O)O)[C@H](C(C)(C)O)C3)nc21 [Example 64, hydrochloride] : > 500 nM

Record CC(c1ccc(Cl)cc1Cl)n1nc(C(N)=O)c2ncc(N3CCC(N4CCCCC4)C(CO)C3)nc21 (centres unmarked) [Example 27, hydrochloride] , field IC50: 100 to 500 nM

// Cc1nn([C@H](C)c2ccc(Cl)cc2Cl)c2nc(N3C[C@@H](C)[C@@H](N4CCCC4)C[C@@H]3C)cnc12 [Example 19, hydrochloride] : IC50 value = 100 to 500 nM

The molecule listed as C[C@@H]1CN(c2cnc3c(C#N)nn([C@H](C)c4ccc(Cl)cc4Cl)c3n2)CC[C@@H]1N1CCCCC1 [Example 23, hydrochloride] has a reported IC50 of < 100 nM

Notebook: Cc1nn([C@H](C)c2ccc(Cl)cc2Cl)c2nc(N3CC[C@H](N4CCCC4)[C@H](C)C3)cnc12 [Example 12, hydrochloride] , IC50 read as < 100 nM

// recorded IC50 for Cc1nn([C@H](C)c2ccc(Cl)cc2Cl)c2nc(N3CC[C@H](N4CCC[C@H]4C(C)(C)O)[C@H](C)C3)cnc12 [Example 36, hydrochloride] : 100 to 500 nM

====

- SYSTEM UNDER TEST: CCR4 (Homo sapiens (Human))
- EXPERIMENTAL DETAILS: Calcium mobilization (Ca Flux) assay
- Format: cell-based
- REPORTED CONDITIONS: hydrochloride
Counter-ions that a name gives are not always drawn.
ENDPOINT LABEL: IC50

Cc1nn([C@H](C)c2ccc(Cl)cc2Cl)c2nc(C3=CCC(N4CCC[C@H]4CCC(=O)O)C(C)C3)cnc12 (stereo in doubt) [Example 72, hydrochloride] tested on CCR4 (Homo sapiens (Human)) gave IC50: > 500 nM

====

- SYSTEM UNDER TEST: CCR4 (Homo sapiens (Human), UniProt P51679)
- EXPERIMENTAL DETAILS: Calcium mobilization (Ca Flux) assay
- Type: cell-based
Structures can show the parent of a compound that is named as a salt.
ENDPOINT LABEL: IC50

The compound listed as CC1CN(c2cnc3cnn(C(C)c4ccc(Cl)cc4Cl)c3n2)CCC1N1CCCCC1 (stereo not shown) [Example 8, hydrochloride] has a reported IC50 of 100 to 500 nM

// CCOC(=O)c1nn(C(C)c2ccc(Cl)cc2Cl)c2nc(N3CCC(N4CCCCC4)CC3)cnc12 (racemic) [Example 1, hydrochloride] : IC50 value = > 500 nM

Entry Cc1nn([C@H](C)c2ccc(Cl)cc2Cl)c2nc(N3CCC(N4CCC[C@H]4CCN)[C@H](C)C3)cnc12 (stereo partly shown) [Example 45] — recorded IC50 = 100 to 500 nM

Record Cc1nn([C@H](C)c2ccc(Cl)cc2Cl)c2nc(N3CCC(N4CCC[C@H]4CC(F)(F)C(=O)O)C(C)C3)cnc12 (stereo partly shown) [Example 58, 2,2,2-trifluoroacetate] . Reported IC50: > 500 nM

Lookup result for CC1CC(c2cnc3c(C(F)(F)F)nn([C@H](C)c4ccc(Cl)cc4Cl)c3n2)=CCC1N1CCC[C@H]1CO (stereo partly shown) [Example 89] ; measured IC50: 100 to 500 nM

response.value for Cc1nn([C@H](C)c2ccc(Cl)cc2Cl)c2nc(N3CCC(N4CCC[C@H]4CCC(O)C(F)(F)F)C(C)C3)cnc12 (single isomer, unassigned) [Example 46, hydrochloride] (field: IC50) = 100 to 500 nM

IC50 reported for this compound CCC1CN(c2cnc3cnn(C(C)c4ccc(Cl)cc4Cl)c3n2)CCC1N1CCCCC1 (stereo not shown) [Example 9, hydrochloride] : 100 to 500 nM
